Assay: compound binding in COS7 lysate, probe aLAP1, primary screen, cell lysate, small-molecule microarray (AID 1124);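 also: lysate comes from COS7 cells expressing LAP1 and is applied at 0.3 µg/mL; score merges spot fluorescence near 667 nm with signal-to-noise over triplicate slides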
Details: probe aLAP1, fluorescence, higher = more signal
Value kind: composite z-score

Field: example entries. Status: answers known.
{"columns": ["Compound", "Result"],
 "data": [
  ["CO[C@H]1COC(=O)[C@H](C)COC(=O)[C@H](Cc2ccccc2)NC(=O)CC=C[C@H]1C", 0.266],
  ["Cc1ccc(S[C@]2(C(=O)NCCCN(C)C)CC(=O)N(Cc3ccccc3)[C@@H]2c2ccc(CO)cc2I)cc1", 0.755],
  ["COc1ccc([Si](C)(C)[C@@H]2[C@@H](CCO)O[C@]3(C(=O)N(Cc4ccccc4)c4ccccc43)[C@H]2C)cc1", 0.0521],
  ["C=CCC(OC(C)=O)[C@@H]1[C@@H](N(Cc2ccc(-c3ccccc3)cc2)C(=O)c2ccc(-c3ccccc3)cc2)c2cc(OCCCO)ccc2N1C(=O)Cc1ccc(OC)cc1 (some centres not stated)", 0.061],
  ["O=C/C=C/c1ccccc1Cl", 0.399]
]}

IN: Which composite z-score value is on record for Cc1ccc(S[C@]2(C(=O)NCCCN(C)C)CC(=O)N(C3CCCCC3)[C@@H]2c2ccc(CO)cc2I)cc1 ?
OUT: 0.379

IN: # input compound: Cc1cc(C)c(C(O)C2C=CC3C(=O)N(C)C(=O)C3N2N2CCCCC2)c(C)c1 (configuration not stated) ; wanted: its composite z-score
OUT: 0.83

* * *

Each entry below lists one item and its recorded z-score value.
Assay: modulators of S6 phosphorylation in cells, primary screen, cell-based, A549, cytoblot, luminescence, serum-stimulated (AID 1158);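 also: serum-stimulated A549 lung adenocarcinoma cells; signal is phosphorylated S6 detected by cytoblot immunostaining with HRP secondary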
Settings: A549 phospho-S6 cytoblot, 5 h, higher = more signal
// no unit, no text: just the number

In the examples that follow, each entry is paired with its recorded z-score.
{"columns": ["Compound", "Value kind", "Number"],
 "data": [
  ["CC(C)C[C@@H]1NC(=O)[C@H]2C[C@@H](C(=O)NCCCCCC[N+](C)(C)C)[C@@H](c3ccc(O)cc3)N2C1=O", "z-score", -0.496],
  ["O=C1O[C@@H](c2ccccc2)[C@@H](c2ccccc2)N2[C@@H](c3ccc(OCCO)cc3)[C@]3(C(=O)Nc4ccc(C#CCCO)cc43)[C@@H](C(=O)N3CCN(c4ncccn4)CC3)[C@H]12", "z-score", -0.436],
  ["COCCOC(=O)N1C(=O)[C@@]2(c3cc(C#CCCO)ccc31)[C@H](c1ccc(OCCO)cc1)N1[C@H](c3ccccc3)[C@H](c3ccccc3)OC(=O)[C@H]1[C@@H]2C(=O)NC[C@H](O)c1ccccc1", "z-score", 0.75],
  ["COc1cc(CO)cc(I)c1O[C@H]1C=C(C(=O)NCCO)C[C@@H](NCCc2c[nH]c3ccccc23)[C@@H]1O", "z-score", 2.21],
  ["CN1C(=O)C2C=CC(C(O)C3CC=CCC3)N(Nc3ccccc3)C2C1=O (stereo unspecified)", "z-score", -0.879]
]}

IN: Given CO[C@@H]1COC(=O)CC=C[C@@H](C)[C@H](OC)COC(=O)CC=C[C@H]1C , state its recorded z-score.
OUT: 0.711

IN: Request the reported z-score associated with COc1cc2c(cc1OC)CN(C(=O)[C@H]1[C@@H]3C(=O)O[C@@H](c4ccccc4)[C@@H](c4ccccc4)N3[C@@H](c3ccccc3OCCO)[C@]13C(=O)Nc1ccc(C#CC4(O)CCCCCC4)cc13)CC2
OUT: 0.389

Cited source: PubChem BioAssay
